What response was measured for each of the following?
B1: VH59 fused to the VP16 activation domain (pEF-VP16, CHO cells) / GAL4 DNA binding domain (DBD)-LEDGF IBD fusion (pM1, CHO cells) [not stated] (parent complex)
chain 1: EVQLLESGGGLVQPGGSLRLSCAASGFTFSTFSMNWVRQAPGKGLEWVSYISRTSKTIYYADSVKGRFTISRDNSKNTLYLQMNSLRAEDTAVYYCARGGWALGDEIPSSFLEFDYWGQGTLVTVS
chain 2: ETSMDSRLQRIHAEIKNSLKIDNLDVNRCIEALDELASLQVTMQQAQKHTEMITTLKKIRRFKVSQVIMEKSTMLYNKFKNMFLVGE

Variants of: B1
run.description: mammalian two-hybrid luciferase reporter assay in CHO cells; 48 h after transfection; Firefly/Renilla luciferase; n = 3; read off a plot

| mutant.designation | result |
| --- | --- |
| chain 1 P108A | ~0.04 |
| chain 1 S110A | ~0.04 |

Need response for each of these variants.
1. chain 1 L112A
2. chain 1 F111A

["~0.05", "~0.04"]

# input variant: chain 1 S109A ; wanted: its response
~0.46
